System: wheat (Tr)
Assay: Test Example 5: selectivity for a crop plant by soil treatment in upland field
Format: in vivo
Parameters: scale not given here
Details: dose 25 gai/10a, 21st day after treatment, index per Table 44
Below, each of the compounds is paired with its reported Tr (herbicidal effect index on crop) value.
// return just the number, without any unit appended

Worked examples follow.
[[record]]
compound = "Cc1ccccc1CC(=O)N(C)C(c1cncnc1C(F)(F)F)C(C)C (racemic)"
experimental_readout = "Tr (herbicidal effect index on crop)"
recorded_result = 3

[[record]]
compound = "CN(C(=O)Cc1ccc(F)cc1)C(c1cncnc1C(F)(F)F)C(C)(C)C (racemic)"
experimental_readout = "Tr (herbicidal effect index on crop)"
recorded_result = 2


Given the compound Cc1ccc(CC(=O)N(C)C(c2cncnc2C(F)(F)F)C(C)C)cc1 (racemic) , write its reported Tr (herbicidal effect index on crop).
2

Given the compound CC(C)C(c1cncnc1C(F)(F)F)N(C)C(=O)Cc1ccc(Cl)c(Cl)c1 (racemic) , write its reported Tr (herbicidal effect index on crop).
2

Given the compound CCN(C(=O)Cc1ccc(C)cc1)C(c1cncnc1C(F)(F)F)C(C)C (racemic) , write its reported Tr (herbicidal effect index on crop).
3

Given the compound CC(C)c1ccc(CC(=O)N(C)C(c2cncnc2C(F)(F)F)C(C)C)cc1 (racemic) , write its reported Tr (herbicidal effect index on crop).
2

Given the compound CC(C)C(c1cncnc1C(F)(F)F)N(C)C(=O)Cc1ccc(C#N)cc1 (racemic) , write its reported Tr (herbicidal effect index on crop).
3

Given the compound CC(C(=O)N(C)C(c1cncnc1C(F)(F)F)C(C)C)c1ccc(Cl)cc1 (mixture of isomers) , write its reported Tr (herbicidal effect index on crop).
3

Given the compound Cc1ccc(CC(=O)N(C)C(c2cncnc2C(F)(F)F)C(C)(C)C)cc1 (racemic) , write its reported Tr (herbicidal effect index on crop).
1

Given the compound CC(C)C(c1cncnc1C(F)(F)F)N(C)C(=O)Cc1ccc(OC(F)(F)F)cc1 (racemic) , write its reported Tr (herbicidal effect index on crop).
0

Given the compound CC(C)C(c1cncnc1C(F)(F)F)N(C)C(=O)COc1ccccc1 (racemic) , write its reported Tr (herbicidal effect index on crop).
3

Given the compound CC(C)Oc1ccc(CC(=O)N(C)C(c2cncnc2C(F)(F)F)C(C)C)cc1 (racemic) , write its reported Tr (herbicidal effect index on crop).
1

Given the compound CC(C)C(c1cncnc1C(F)(F)F)N(C)C(=O)Cc1ccc(Cl)cc1F (racemic) , write its reported Tr (herbicidal effect index on crop).
3

Given the compound CCCN(C(=O)Cc1ccc(C#N)cc1)C(c1cncnc1C(F)(F)F)C(C)C (racemic) , write its reported Tr (herbicidal effect index on crop).
3

Given the compound Cc1ccc(CC(=O)N(C)C(c2cncnc2C)C(C)C)cc1 (racemic) , write its reported Tr (herbicidal effect index on crop).
2

Given the compound CC(C)C(c1cncnc1C(F)(F)F)N(C(=O)Cc1ccc(Cl)cc1)C1CC1 (racemic) , write its reported Tr (herbicidal effect index on crop).
1

====

Test system: rice (Or)
Assay: Test Example 4: selectivity for a crop plant by flooded paddy field treatment
Assay type: in vivo
Parameters: scale not given here
Details: rice transplanted at second leaf stage, dose 25 gai/10a, 21st day after treatment, index per Table 44
Below, each of the compounds is paired with its reported Or (herbicidal effect index on crop) value.

Worked examples follow.
[[record]]
compound = "CCN(C(=O)Cc1ccc(F)cc1)C(c1cncnc1C(F)F)C(C)C (racemic)"
recorded_result = 1

[[record]]
compound = "CN(C(=O)Cc1ccc(Cl)cc1)C(c1cncnc1C(F)(F)F)C1CCCC1 (racemic)"
recorded_result = 0

[[record]]
compound = "CC(C)C(c1cncnc1C(F)(F)F)N(C)C(=O)Cc1ccc(S(C)(=O)=O)cc1 (racemic)"
recorded_result = 1


Given the compound CC(C)C(c1cncnc1C(F)(F)F)N(C)S(=O)(=O)c1ccc(Cl)cc1 (racemic) , write its reported Or (herbicidal effect index on crop).
1

Given the compound CSc1ncncc1C(C(C)C)N(C)C(=O)Cc1ccc(C)cc1 (racemic) , write its reported Or (herbicidal effect index on crop).
1

Given the compound COc1ccc(C(c2cncnc2C(F)(F)F)N(C)C(=O)Cc2ccccc2)cc1 (racemic) , write its reported Or (herbicidal effect index on crop).
1
